target: human Retinoid X Receptor beta (RXRb), RXRB (gene 6257)
test.details: ATG_RXRb_TRANS: Attagene TRANS-FACTORIAL HepG2 Assay for human Retinoid X Receptor beta (RXRb) (AID 2283013)
Records with an inconclusive call do not appear. Activity calls are given as the source filed them. Rule for the calls: active = hit-call score of the fitted dose curve at least 0.9, where 1 is the maximum; inconclusive = response in the unintended direction; inactive = score below 0.9.
The reply should be one of these categories: active, inactive

Example results:
O=C(O)CCCC[C@@H]1SC[C@@H]2NC(=O)N[C@@H]21 : inactive
CCCCCCCCc1ccc(Nc2ccc(CCCCCCCC)cc2)cc1 : inactive
O=C1c2cccc(O)c2C(=O)c2c(O)cc(CO)cc21 : inactive

Now consider the entry below.
// param item: Cc1cc(C)c(C)cc1C ; yields the recorded call
inactive

* * *

test.details: ATG_BRE_CIS: Attagene CIS-FACTORIAL HepG2 Assay for human Bone Morphogenetic Protein (BMP) Response Element (BRE) (AID 2282933)
condition.label: HepG2 BMP response element reporter, Attagene transcription factor profiling; actives raise or lower the signal
Active and inactive are the calls of the source. How the source made its calls: active means hit-call score of the fitted dose curve at least 0.9, where 1 is the maximum; inactive means score below 0.9.
The reply should be one of these categories: active, inactive

Cc1ccc(C2OC[C@@H]3OC(c4ccc(C)cc4)O[C@H]([C@H](O)CO)[C@@H]3O2)cc1 (some centres undefined) : inactive

// param item: C[Si](C)(C)O[Si](O)(O)O ; yields the recorded call
inactive

// param item: CCOC(=O)c1ccc(N(C)C)cc1 ; yields the recorded call
inactive

// param item: N#CCc1ccc(Cl)cc1Cl ; yields the recorded call
inactive

// param item: NC(=O)c1ccccc1O ; yields the recorded call
inactive

// param item: O=C(Oc1ccccc1)c1ccc2ccccc2c1O ; yields the recorded call
active

* * *

target: Ratio of Nucleoli Translocation and Cytoplasm, AR (gene 367) (UniProt P10275)
Sequence (P10275 whole entry, looked up): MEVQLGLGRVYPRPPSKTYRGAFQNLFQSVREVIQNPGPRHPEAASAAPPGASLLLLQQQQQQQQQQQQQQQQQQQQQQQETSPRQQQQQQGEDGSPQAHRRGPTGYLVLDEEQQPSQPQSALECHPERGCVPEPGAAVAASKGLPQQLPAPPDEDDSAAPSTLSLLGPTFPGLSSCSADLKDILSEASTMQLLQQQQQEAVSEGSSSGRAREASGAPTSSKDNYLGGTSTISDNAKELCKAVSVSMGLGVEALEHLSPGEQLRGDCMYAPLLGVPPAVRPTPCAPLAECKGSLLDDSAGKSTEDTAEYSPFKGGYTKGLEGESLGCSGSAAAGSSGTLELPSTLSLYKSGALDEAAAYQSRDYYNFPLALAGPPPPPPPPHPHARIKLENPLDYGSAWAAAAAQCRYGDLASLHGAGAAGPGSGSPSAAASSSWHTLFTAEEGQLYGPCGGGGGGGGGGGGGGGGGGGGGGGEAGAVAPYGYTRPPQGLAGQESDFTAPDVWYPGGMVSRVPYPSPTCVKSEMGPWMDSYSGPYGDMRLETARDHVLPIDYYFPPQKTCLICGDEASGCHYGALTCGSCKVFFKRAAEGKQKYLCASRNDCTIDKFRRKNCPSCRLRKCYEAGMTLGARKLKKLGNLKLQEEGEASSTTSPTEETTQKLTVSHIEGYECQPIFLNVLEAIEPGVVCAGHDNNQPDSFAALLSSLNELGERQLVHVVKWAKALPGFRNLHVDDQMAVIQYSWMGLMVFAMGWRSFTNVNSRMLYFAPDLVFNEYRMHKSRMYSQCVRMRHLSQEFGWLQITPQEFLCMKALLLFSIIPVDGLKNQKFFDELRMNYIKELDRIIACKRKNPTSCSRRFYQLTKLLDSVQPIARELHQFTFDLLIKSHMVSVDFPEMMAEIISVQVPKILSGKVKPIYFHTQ
test.details: UPITT_HCI_U2OS_AR_TIF2_Nucleoli_Cytoplasm_Ratio_Antagonist: University of Pittsburgh U2OS Androgen Receptor-Transcriptional Intermediary Factor 2 (AR-TIF2) Antagonism High Content Imaging Assay for Ratio of Nucleoli Translocation and Cytoplasm (AID 2283999);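 note: antagonists lower the DHT-driven ratio of nucleolar to cytoplasmic red signal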
Results filed as inconclusive are left out. Active and inactive are the calls of the source. How the source made its calls: active means hit-call score of the fitted dose curve at least 0.9, where 1 is the maximum; inconclusive means response in the unintended direction; inactive means score below 0.9.
The reply should be one of these categories: active, inactive

CC(C)(Oc1ccc(C2CC2(Cl)Cl)cc1)C(=O)O (stereo not given) : inactive

// param item: Oc1ccc(Cl)cc1Cc1cc(Cl)ccc1O ; yields the recorded call
active

// param item: CCCc1ccc(OC)cc1 ; yields the recorded call
inactive

// param item: CC(CC=O)CCCC(C)(C)O (stereo not given) ; yields the recorded call
inactive

// param item: CC(C)c1ccc2cc(C(C)C)ccc2c1 ; yields the recorded call
inactive

* * *

test.details: ATG_SREBP_CIS: Attagene CIS-FACTORIAL HepG2 Assay for human Sterol Regulatory Element Binding (SREBP) (AID 2282962)
condition.label: HepG2 Attagene cis-factorial SREBP reporter, mRNA; actives raise or lower the signal
Activity calls are given as the source filed them. Rule for the calls: active = hit-call score of the fitted dose curve at least 0.9, where 1 is the maximum; inactive = score below 0.9.
The reply should be one of these categories: active, inactive

Example results:
CCCCCCCCCCC=CC#N : inactive
COC(=O)c1ccccc1OC : inactive
CC/C=C\CCOC(=O)CCCCC : inactive
C=CC(=O)OCC(Br)CBr (stereo not given) : inactive
COCCOCCOCCOCCOC : inactive

// param item: CC(=O)C=CC1C(C)=CCC(C)C1(C)C (stereo not given) ; yields the recorded call
inactive

// param item: C#CC1(O)CC[C@H]2[C@@H]3CCC4=CCCC[C@@H]4[C@H]3CC[C@@]21C (stereo not given in full) ; yields the recorded call
active

// param item: Clc1nc2ccccc2s1 ; yields the recorded call
inactive

// param item: O=C(C=Cc1ccccc1)OCc1ccccc1 ; yields the recorded call
inactive

// param item: O=S(=O)(O)c1ccccc1C=Cc1ccc(-c2ccc(C=Cc3ccccc3S(=O)(=O)O)cc2)cc1 ; yields the recorded call
inactive

// param item: CCOC(=O)c1ccc(N(C)C)cc1 ; yields the recorded call
inactive

// param item: CCC(C)(C)C1CCCCC1OC(C)=O (stereo not given) ; yields the recorded call
inactive

// param item: CCO[Si](CCCN=C=O)(OCC)OCC ; yields the recorded call
inactive

// param item: CCCCCCCCc1ccc(Nc2ccc(CCCCCCCC)cc2)cc1 ; yields the recorded call
inactive

// param item: O=C1CCCCCCCCCCCCCCCO1 ; yields the recorded call
active

* * *

Read-out: Matrix Metallopeptidase 9 (MMP9), MMP9 (gene 4318)
test.details: BSK_KF3CT_MMP9: BioMAP Diversity Plus: KF3CT Assay for Matrix Metallopeptidase 9 (MMP9) Biomarker Activity (AID 2283074)
condition.label: primary human keratinocytes with fibroblasts; actives raise or lower the signal
Calls of active or inactive are those of the source. Rule for the calls: active = hit-call score of the fitted dose curve at least 0.9, where 1 is the maximum; inactive = score below 0.9.
The reply should be one of these categories: t (active), f (inactive)

CCCCCCCCCCCCCCCC[N+](C)(C)CC : t
O=C1CCCN1CCO : f
C/C=C\C/C=C/CCCCCCCCOC(C)=O : t
CN1C(=O)N(C)C(O)C1O (stereo not given) : f
O=C(Cl)c1cc(C(=O)Cl)cc(C(=O)Cl)c1 : t

// param item: O=Nc1ccc(O)cc1 ; yields the recorded call
f

// param item: CCCCC/C=C\C/C=C\CCCCCCCC(=O)OC ; yields the recorded call
t

// param item: O=c1c2ccccc2oc2ccccc12 ; yields the recorded call
f

// param item: C=C[Si](OC(C)=O)(OC(C)=O)OC(C)=O ; yields the recorded call
f

// param item: CC(C)C(=O)C(C)C ; yields the recorded call
f

// param item: CC1OC1C1CCC2(C)OC2C1 (stereo not given) ; yields the recorded call
f

// param item: O=C(Nc1ccccc1SSc1ccccc1NC(=O)c1ccccc1)c1ccccc1 ; yields the recorded call
f

// param item: c1ccc(-c2ccccn2)nc1 ; yields the recorded call
f

// param item: CCCCC(CC)COCC1CO1 (stereo not given) ; yields the recorded call
f

// param item: CO[Si](OC)(OC)c1ccccc1 ; yields the recorded call
f

* * *

Read-out: TIMP metallopeptidase inhibitor 1 (TIMP1), TIMP1 (gene 7076)
test.details: BSK_MyoF_TIMP1: BioMAP Diversity Plus: MyoF Assay for TIMP metallopeptidase inhibitor 1 (TIMP1) Biomarker Activity (AID 2284269)
condition.label: primary human lung fibroblasts
Activity calls are given as the source filed them. Rule for the calls: active = hit-call score of the fitted dose curve at least 0.9, where 1 is the maximum; inactive = score below 0.9.
endpoint: AC50

Example entries and their recorded answers appear below.
CC(C)C(=O)C(C)C : inactive
C#CC1(O)CC[C@H]2[C@@H]3CCC4=CCCC[C@@H]4[C@H]3CC[C@@]21C (some centres not stated) : 33.1 µM (active)
C=CC=CC=CCCCCC : inactive
C=CCOCC(O)CCl (configuration not stated) : inactive
S=C(NC1CCCCC1)NC1CCCCC1 : inactive

Working through the 2 molecules below one at a time, give AC50 for each.
1. CC1OC1C1CCC2(C)OC2C1 (configuration not stated)
2. C=CCOc1c(Br)cc(Br)cc1Br

1. inactive
2. 31.2 µM (active)

Working through the 5 molecules below one at a time, give AC50 for each.
1. CCCCC/C=C\C/C=C\CCCCCCCC(=O)OC
2. CCCCCCCCCCCCCCCC[N+](C)(C)CC
3. CCOc1nc(F)cc2nc(S(=O)(=O)Nc3c(Cl)cccc3C(=O)OC)nn12
4. CCO[Si](CCCN=C=O)(OCC)OCC
5. O=C(Nc1ccccc1SSc1ccccc1NC(=O)c1ccccc1)c1ccccc1

inactive
2.73 µM (active)
inactive
inactive
inactive

* * *

Read-out: Interleukin-8 (IL8), CXCL8 (gene 3576)
test.details: BSK_SAg_IL8: BioMAP Diversity Plus: SAg Assay for Interleukin-8 (IL8) Biomarker Activity (AID 2283094)
condition.label: primary human HUVEC with PBMC; actives raise or lower the signal
Active and inactive are the calls of the source. Rule for the calls: active = hit-call score of the fitted dose curve at least 0.9, where 1 is the maximum; inactive = score below 0.9.
The reply should be one of these categories: active, inactive

Example results:
N#[N+]c1ccc2c(S(=O)(=O)[O-])cccc2c1O : inactive
CCO[Si](C)(OCC)OCC : inactive
O=C1CCCN1CCO : inactive
O=C(Nc1ccccc1SSc1ccccc1NC(=O)c1ccccc1)c1ccccc1 : active
CO[Si](OC)(OC)c1ccccc1 : inactive
c1ccc2c(c1)ccc1cc3c(ccc4ccccc43)cc12 : inactive

Now consider the entry below.
// param item: CCCCC/C=C\C/C=C\CCCCCCCC(=O)OC ; yields the recorded call
active

* * *

target: Estrogen receptor (Homo sapiens) + Estrogen receptor beta (Homo sapiens) (UniProt P03372+Q92731)
Sequence (P03372 whole entry, looked up, the tested form may be a part): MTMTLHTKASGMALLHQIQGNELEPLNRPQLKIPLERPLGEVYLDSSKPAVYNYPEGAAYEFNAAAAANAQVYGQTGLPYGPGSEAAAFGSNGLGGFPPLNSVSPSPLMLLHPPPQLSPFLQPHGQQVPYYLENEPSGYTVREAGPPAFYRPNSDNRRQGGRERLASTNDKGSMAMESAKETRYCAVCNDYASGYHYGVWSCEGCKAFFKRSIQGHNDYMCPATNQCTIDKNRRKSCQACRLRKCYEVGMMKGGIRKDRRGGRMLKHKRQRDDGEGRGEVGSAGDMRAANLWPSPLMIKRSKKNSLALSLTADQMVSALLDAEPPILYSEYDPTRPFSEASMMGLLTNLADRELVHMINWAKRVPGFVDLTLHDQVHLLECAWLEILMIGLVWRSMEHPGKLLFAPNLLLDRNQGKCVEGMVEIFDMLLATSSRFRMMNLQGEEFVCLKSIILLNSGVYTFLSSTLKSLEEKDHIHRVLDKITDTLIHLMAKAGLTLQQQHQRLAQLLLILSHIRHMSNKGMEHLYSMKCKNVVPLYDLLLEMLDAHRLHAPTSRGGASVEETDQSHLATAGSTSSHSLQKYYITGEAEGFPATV
Sequence (Q92731 whole entry, looked up, the tested form may be a part): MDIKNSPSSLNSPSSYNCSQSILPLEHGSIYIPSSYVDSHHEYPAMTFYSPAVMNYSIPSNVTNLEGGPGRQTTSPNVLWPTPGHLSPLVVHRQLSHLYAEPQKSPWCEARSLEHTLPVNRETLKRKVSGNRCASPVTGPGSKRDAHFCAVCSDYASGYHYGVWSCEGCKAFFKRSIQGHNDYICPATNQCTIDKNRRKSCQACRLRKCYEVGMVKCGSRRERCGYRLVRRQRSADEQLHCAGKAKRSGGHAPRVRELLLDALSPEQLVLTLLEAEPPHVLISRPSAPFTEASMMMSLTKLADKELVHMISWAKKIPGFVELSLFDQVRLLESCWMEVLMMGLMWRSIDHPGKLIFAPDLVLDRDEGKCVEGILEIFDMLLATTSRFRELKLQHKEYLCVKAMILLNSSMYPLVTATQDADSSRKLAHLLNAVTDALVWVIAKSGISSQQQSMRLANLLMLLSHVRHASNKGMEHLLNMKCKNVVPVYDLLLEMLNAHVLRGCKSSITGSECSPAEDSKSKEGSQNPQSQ
test.details: OT_ER_ERaERb_1440: Odyssey Thera (OT) 24-hour HEK293T Protein-Complementation Assay for Estrogen Receptor-alpha/-beta Homodimer (AID 2283356);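 note: heteromer of ER alpha and ER beta binding domains; hits raise reporter fluorescence and both agonists and antagonists give an increase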
Inconclusive results are not listed. The source made the active and inactive calls. How the source made its calls: active means hit-call score of the fitted dose curve at least 0.9, where 1 is the maximum; inconclusive means response in the unintended direction; inactive means score below 0.9.
The reply should be one of these categories: 1.0 (active), 0.0 (inactive)

Example results:
O=c1cc(-c2ccccc2)oc2ccccc12 : 1.0
NC(=O)N=NC(N)=O : 0.0
CC(C)c1ccc2cc(C(C)C)ccc2c1 : 0.0
c1c[nH]cn1 : 0.0
CC(C)(C)c1ccc(OC(=O)c2ccccc2O)cc1 : 1.0
CCCc1ccc(OC)cc1 : 0.0

// param item: CCCCCCCOC(=O)CCC ; yields the recorded call
0.0

// param item: O=C1C(N(CO)C(=O)NCO)N(CO)C(=O)N1CO (stereo not drawn) ; yields the recorded call
0.0

The measured values listed here are drawn from PubChem BioAssay (EPA / NIEHS).
